This collection of values is drawn from ChEMBL document CHEMBL5608259.

# tgt: Protein arginine N-methyltransferase 6 (Homo sapiens)
# Sequence (Q96LA8 whole entry): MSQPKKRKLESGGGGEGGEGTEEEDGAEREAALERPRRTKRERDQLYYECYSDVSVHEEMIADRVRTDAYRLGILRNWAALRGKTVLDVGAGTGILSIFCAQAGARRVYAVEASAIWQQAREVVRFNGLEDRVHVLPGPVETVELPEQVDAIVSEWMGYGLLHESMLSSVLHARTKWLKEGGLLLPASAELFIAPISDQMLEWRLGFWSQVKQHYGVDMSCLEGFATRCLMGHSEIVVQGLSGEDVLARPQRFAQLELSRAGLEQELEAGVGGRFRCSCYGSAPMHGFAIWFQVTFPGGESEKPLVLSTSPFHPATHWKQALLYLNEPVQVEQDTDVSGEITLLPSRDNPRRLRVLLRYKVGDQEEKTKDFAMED
# runDescription: Inhibition of PRMT6 (unknown origin) incubated for 1 hr in presence of 3H-SAM by topcount plate reader analysis
propertyLabel: pIC50
Friendly reminder that pIC50 comes from taking -log10 of the concentration in mol/L.

### Prompt Requested field: pIC50. Item: `Nc1ncnc2c1ncn2[C@@H]1O[C@H](CSCCCCNCc2cccc(-c3ccc(Cl)cc3)c2)[C@@H](O)[C@H]1O`
### Response 5.82

----------
# tgt: Protein arginine N-methyltransferase 1 (Homo sapiens, UniProt Q99873)
# Sequence (Q99873 whole entry, looked up): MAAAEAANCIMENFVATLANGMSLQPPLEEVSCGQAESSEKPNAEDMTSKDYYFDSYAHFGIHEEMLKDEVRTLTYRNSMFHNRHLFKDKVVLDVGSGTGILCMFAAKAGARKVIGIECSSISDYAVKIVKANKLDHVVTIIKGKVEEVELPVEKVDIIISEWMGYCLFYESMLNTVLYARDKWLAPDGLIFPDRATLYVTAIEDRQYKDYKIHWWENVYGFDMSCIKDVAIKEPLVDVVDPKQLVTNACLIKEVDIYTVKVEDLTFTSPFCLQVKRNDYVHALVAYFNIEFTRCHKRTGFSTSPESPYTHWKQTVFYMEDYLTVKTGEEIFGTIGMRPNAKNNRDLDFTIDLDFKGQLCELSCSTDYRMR
# runDescription: Inhibition of human PRMT1 using H4-21peptide as substrate at 10 uM incubated for 10 mins by fluorescence based analysis relative to control
The source made the active and inactive calls. The rule behind the calls is not given here.
propertyLabel: inhibition

COc1cc2nc(-c3ccc(F)c(O)c3)nc(NCCSC[C@H]3O[C@@H](n4cnc5c(N)ncnc54)[C@H](O)[C@@H]3O)c2cc1OC : inactive
N=C(NCCSC[C@H]1O[C@@H](n2cnc3c(N)ncnc32)[C@H](O)[C@@H]1O)NCc1ccccc1 : > 50%
Nc1ncnc2c1ncn2[C@@H]1O[C@H](CSCCCNC(=O)NCCc2ccccc2)[C@@H](O)[C@H]1O : < 50%
Nc1ncnc2c1ncn2[C@@H]1O[C@H](CSCCNC(=O)NCCCc2ccccc2)[C@@H](O)[C@H]1O : < 50%
COc1cc2nc(-c3cccc(F)c3)nc(NCCSC[C@H]3O[C@@H](n4cnc5c(N)ncnc54)[C@H](O)[C@@H]3O)c2cc1OC : inactive

### Prompt Identify the measured inhibition of `N=C(NCCCSC[C@H]1O[C@@H](n2cnc3c(NCCCc4ccccc4)ncnc32)[C@H](O)[C@@H]1O)Nc1ccccc1` for Protein arginine N-methyltransferase 1 (Homo sapiens, UniProt Q99873).
### Response Active

### Prompt Recorded inhibition for `Nc1ncnc2c1ncn2[C@@H]1O[C@H](CSCCOc2ccc(-c3cccc(O)c3)cc2)[C@@H](O)[C@H]1O` with Protein arginine N-methyltransferase 1 (Homo sapiens, UniProt Q99873), please?
### Response inactive

----------
# tgt: Protein arginine N-methyltransferase 3 (Homo sapiens, UniProt O60678)
# Sequence (O60678 2-531 limits assumed): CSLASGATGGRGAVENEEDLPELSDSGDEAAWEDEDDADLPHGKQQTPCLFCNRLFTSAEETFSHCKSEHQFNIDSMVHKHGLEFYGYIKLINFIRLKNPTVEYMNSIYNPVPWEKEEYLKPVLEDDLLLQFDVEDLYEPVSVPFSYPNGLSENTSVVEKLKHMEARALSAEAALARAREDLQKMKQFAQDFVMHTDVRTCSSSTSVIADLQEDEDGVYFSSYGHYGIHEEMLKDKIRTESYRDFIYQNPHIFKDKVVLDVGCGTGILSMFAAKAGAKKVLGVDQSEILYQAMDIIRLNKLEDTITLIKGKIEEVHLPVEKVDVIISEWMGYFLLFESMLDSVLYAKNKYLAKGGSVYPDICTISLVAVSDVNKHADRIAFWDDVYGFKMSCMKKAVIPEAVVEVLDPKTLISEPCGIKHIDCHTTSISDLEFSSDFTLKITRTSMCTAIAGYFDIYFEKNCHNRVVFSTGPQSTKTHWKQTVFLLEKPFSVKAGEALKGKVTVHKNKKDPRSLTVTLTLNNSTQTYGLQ
# runDescription: Inhibition of human PRMT3 using H4-21peptide as substrate at 10 uM incubated for 10 mins by fluorescence based analysis relative to control
propertyLabel: inhibition

Sample records with inhibition:
Nc1cccc(-c2ccc(CNC(=O)NCCSC[C@H]3O[C@@H](n4cnc5c(N)ncnc54)[C@H](O)[C@@H]3O)cc2)c1 : 3%
N=C(NCCCSC[C@H]1O[C@@H](n2cnc3c(NCCCc4ccccc4)ncnc32)[C@H](O)[C@@H]1O)NCC1CC1 : < 30%
Nc1ncnc2c1ncn2[C@@H]1O[C@H](CSCCNC(=O)NC2CCCCC2)[C@@H](O)[C@H]1O : 3%
Nc1ncnc2c1ncn2[C@@H]1O[C@H](CSCCOc2ccc(-c3ccncc3)cc2)[C@@H](O)[C@H]1O : < 30%
Nc1ncnc2c1ncn2[C@@H]1O[C@H](CSCCNCc2cccc(-c3ccncc3)c2)[C@@H](O)[C@H]1O : < 30%

### Prompt GET /values?readout=inhibition&system=Protein arginine N-methyltransferase 3 (Homo sapiens, UniProt O60678)&item= `Nc1ncnc2c1ncn2[C@@H]1O[C@H](CSCCNCc2cccc(-c3cncnc3)c2)[C@@H](O)[C@H]1O`
### Response < 30%

### Prompt Hello, I am looking for reported inhibition with Protein arginine N-methyltransferase 3 (Homo sapiens, UniProt O60678) for `COc1cc2nc(-c3ccoc3)nc(NCCSC[C@H]3O[C@@H](n4cnc5c(N)ncnc54)[C@H](O)[C@@H]3O)c2cc1OC` . Could you help?
### Response < 30%

### Prompt Please state recorded inhibition (tested on Protein arginine N-methyltransferase 3 (Homo sapiens, UniProt O60678)) of `Nc1ncnc2c1ncn2[C@@H]1O[C@H](CSCCNC(=O)Nc2ccccc2Br)[C@@H](O)[C@H]1O`
### Response > 50%

----------
# tgt: UniProt Q9NR22
# runDescription: Inhibition of PRMT8 (unknown origin) incubated for 1 hr in presence of 3H-SAM by topcount plate reader analysis
# Sequence (Q9NR22 whole entry): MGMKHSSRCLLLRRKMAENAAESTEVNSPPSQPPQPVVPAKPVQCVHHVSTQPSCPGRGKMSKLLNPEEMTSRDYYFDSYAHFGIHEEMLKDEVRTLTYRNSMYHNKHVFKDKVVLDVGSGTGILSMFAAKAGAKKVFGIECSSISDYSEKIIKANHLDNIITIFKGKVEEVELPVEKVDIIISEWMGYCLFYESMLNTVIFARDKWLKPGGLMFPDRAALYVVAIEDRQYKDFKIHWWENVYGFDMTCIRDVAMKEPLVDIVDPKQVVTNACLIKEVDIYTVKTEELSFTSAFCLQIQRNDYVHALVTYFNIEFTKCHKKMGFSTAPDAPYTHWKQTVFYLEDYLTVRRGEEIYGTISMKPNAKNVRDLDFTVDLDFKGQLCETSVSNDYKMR
propertyLabel: IC50 (µM)
Give the value in µM but do not write µM after it.

### Prompt Return IC50 measured with UniProt Q9NR22 given this compound: `Nc1ncnc2c1ncn2[C@@H]1O[C@H](CSCCCCNCc2cccc(-c3ccc(Cl)cc3)c2)[C@@H](O)[C@H]1O`
### Response 7

----------
# tgt: Protein arginine N-methyltransferase 1 (Homo sapiens)
# runDescription: Inhibition of human PRMT1 using H4-21peptide as substrate at 10 uM incubated for 10 mins by fluorescence based analysis relative to control
The source made the active and inactive calls. No cut-off for these calls is given here.
propertyLabel: inhibition

Sample answers from the record:
COc1cc2nc(-c3ccccc3O)nc(NCCSC[C@H]3O[C@@H](n4cnc5c(N)ncnc54)[C@H](O)[C@@H]3O)c2cc1OC : inactive
COc1cc2nc(-c3ccc(O)cc3)nc(NCCSC[C@H]3O[C@@H](n4cnc5c(N)ncnc54)[C@H](O)[C@@H]3O)c2cc1OC : inactive
N=C(NCCCSC[C@H]1O[C@@H](n2cnc3c(NCCCc4ccccc4)ncnc32)[C@H](O)[C@@H]1O)NCC1CCC1 : Active
N=C(NCCCSC[C@H]1O[C@@H](n2cnc3c(N)ncnc32)[C@H](O)[C@@H]1O)Nc1cccc(-c2cccc(F)c2)c1 : > 50%
Nc1ncnc2c1ncn2[C@@H]1O[C@H](CSCCNC(=O)NCCc2ccccc2)[C@@H](O)[C@H]1O : < 50%

Consider the additional compound presented here.
### Prompt # inhibition lookup, item `N=C(NCCSC[C@H]1O[C@@H](n2cnc3c(N)ncnc32)[C@H](O)[C@@H]1O)Nc1ccccc1`
### Response > 50%

----------
# tgt: Protein arginine N-methyltransferase 3 (Homo sapiens, UniProt O60678)
# runDescription: Inhibition of human PRMT3 using H4-21peptide as substrate at 10 uM incubated for 10 mins by fluorescence based analysis relative to control
The reader will find reported inhibition values listed item by item below.

Some entries whose results are on file:
Nc1ncnc2c1ncn2[C@@H]1O[C@H](CSCCCNC(=O)NCCc2ccccc2)[C@@H](O)[C@H]1O : 3%
Nc1ncnc2c1ncn2[C@@H]1O[C@H](CSCCCNCc2cccc(-c3ccc(C(F)(F)F)cc3)c2)[C@@H](O)[C@H]1O : < 30%
Nc1ncnc2c1ncn2[C@@H]1O[C@H](CSCCNC(=O)NCCc2ccccc2)[C@@H](O)[C@H]1O : 3%
COc1cc2nc(-c3cccc(O)c3)nc(NCCSC[C@H]3O[C@@H](n4cnc5c(N)ncnc54)[C@H](O)[C@@H]3O)c2cc1OC : < 30%
COc1cc2nc(-c3cccc([N+](=O)[O-])c3)nc(NCCSC[C@H]3O[C@@H](n4cnc5c(N)ncnc54)[C@H](O)[C@@H]3O)c2cc1OC : < 30%
CCCCNC(=N)NCCCSC[C@H]1O[C@@H](n2cnc3c(NCCCc4ccccc4)ncnc32)[C@H](O)[C@@H]1O : < 30%

Turning now to a further compound:
### Prompt Would you mind telling me what inhibition value was observed for `Nc1ncnc2c1ncn2[C@@H]1O[C@H](CSCCNCc2cccc(-c3cccc(O)c3)c2)[C@@H](O)[C@H]1O` ?
### Response < 30%

----------
# tgt: Protein arginine N-methyltransferase 8 (Homo sapiens, UniProt Q9NR22)
# runDescription: Inhibition of human PRMT8 using Histone H4 as substrate and SAM as cofactor at 10 uM by radiometric HotSpot assay relative to control
# Sequence (Q9NR22 2-394 limits assumed): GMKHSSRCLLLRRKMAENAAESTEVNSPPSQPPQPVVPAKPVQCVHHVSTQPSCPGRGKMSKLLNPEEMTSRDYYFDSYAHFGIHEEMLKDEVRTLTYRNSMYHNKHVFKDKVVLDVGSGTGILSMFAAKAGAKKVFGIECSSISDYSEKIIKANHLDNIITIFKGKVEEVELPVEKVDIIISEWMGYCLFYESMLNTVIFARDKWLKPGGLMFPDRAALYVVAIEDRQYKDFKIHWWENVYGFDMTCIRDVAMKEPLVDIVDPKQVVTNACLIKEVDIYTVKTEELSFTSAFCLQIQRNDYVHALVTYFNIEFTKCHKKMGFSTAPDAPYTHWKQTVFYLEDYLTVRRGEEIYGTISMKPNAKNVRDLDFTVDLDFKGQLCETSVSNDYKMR
propertyLabel: inhibition

Here are 8 compounds together with their reported answers.
Nc1ncnc2c1ncn2[C@@H]1O[C@H](CSCCOc2ccc(-c3ccc(F)c(O)c3)cc2)[C@@H](O)[C@H]1O : < 50%
Nc1ncnc2c1ncn2[C@@H]1O[C@H](CSCCNC(=O)Nc2ccc(F)cc2)[C@@H](O)[C@H]1O : < 30%
N=C(NCCCSC[C@H]1O[C@@H](n2cnc3c(N)ncnc32)[C@H](O)[C@@H]1O)Nc1cccc(-c2cncnc2)c1 : > 95%
N=C(NCCSC[C@H]1O[C@@H](n2cnc3c(N)ncnc32)[C@H](O)[C@@H]1O)Nc1cccc(-c2ccc(C(F)(F)F)cc2)c1 : > 95%
Nc1ncnc2c1ncn2[C@@H]1O[C@H](CSCCNCc2cccc(-c3ccc(F)c(O)c3)c2)[C@@H](O)[C@H]1O : > 50%
N=C(NCCSC[C@H]1O[C@@H](n2cnc3c(N)ncnc32)[C@H](O)[C@@H]1O)Nc1cccc(-c2ccc(Cl)cc2)c1 : > 95%
N=C(NCCCSC[C@H]1O[C@@H](n2cnc3c(N)ncnc32)[C@H](O)[C@@H]1O)Nc1cccc(-c2ccc(F)cc2F)c1 : > 95%
Nc1ncnc2c1ncn2[C@@H]1O[C@H](CSCCNCc2cccc(-c3cccc(O)c3)c2)[C@@H](O)[C@H]1O : > 50%

### Prompt Form field: reported inhibition of `Nc1ncnc2c1ncn2[C@@H]1O[C@H](CSCCNC(=O)NCc2ccccc2Br)[C@@H](O)[C@H]1O`
### Response < 30%

### Prompt Give the measured inhibition of `Nc1ncnc2c1ncn2[C@@H]1O[C@H](CSCCNCc2cccc(-c3ccc(Cl)cc3)c2)[C@@H](O)[C@H]1O` .
### Response > 50%
